assay.comment: DUSP6 inhibitors restoring Erk phosphorylation by chemical complementation, primary imaging in DUSP6-transfected HeLa (AID 609)
protocol.conditions: HeLa MKP-3 transfected, phospho-Erk imaging KS statistic; measured here: cell density z-score; at 10 µM; cells stimulated with TPA for 15 min
# maps each entry to its z-score
# print the numeric value only

# lookup: z-score of COc1ccc(C2CC(c3ccc(C)cc3)Nc3nc(N)nn32)cc1 (stereo not given)
-0.765

# lookup: z-score of CC1(C)CC(=O)C2=C(C1)OC(N)=C(C#N)C21C(=O)N(CN2CCOCC2)c2ccccc21 (stereo not given)
0.502

# lookup: z-score of COc1cc(C2C(C(=O)c3sc(C)nc3C)=C(O)C(=O)N2CCN(C)C)cc(OC)c1OC (stereo not given)
0.333

# lookup: z-score of Cc1ccc(S(=O)(=O)N(CC(O)CN(C)C)c2ccccc2)cc1 (stereo not given)
0.563

# lookup: z-score of COc1ccc(OC)c(C2/C(=C(\O)c3ccc(OC)c(Cl)c3)C(=O)C(=O)N2CCN(C)C)c1 (stereo not given)
-0.468

# lookup: z-score of COC(=O)c1ccc(CN(C(C)=O)c2ccccc2)o1
0.183

# lookup: z-score of COC(=O)CSc1nc(-c2cccs2)ccc1C#N
0.598

# lookup: z-score of CCN(CC)c1nc(N2CCOCC2)c(C#N)c2c1CN(C)CC2
1.03

# lookup: z-score of COC(=O)c1ccc(C2/C(=C(\O)c3cccc(OC)c3)C(=O)C(=O)N2CCCN(C)C)cc1 (stereo not given)
0.797

# lookup: z-score of CC1(C)Cc2ccccc2-c2c1c(=O)n(-c1ccccc1)c1nnnn21
0.648
